- System: SR leukemia
- EXPERIMENTAL DETAILS: NCI tumour cell line growth inhibition, 48 h; in the data active = GI50 below about 0.43 µM; inactive = the rest
Classes used: yes (1) for active, no (0) for inactive

In [3]: df
Out[3]:
                                   compound  category_label
0  CC(CN(C)C)Oc1ccccc1NC1=C(Cl)C(=O)C(Nc2ccccc2OC(C)CN(C)C)=C(Cl)C1=O (stereo not given)         yes (1)
1  Cc1cc2c(C(N)=O)c(N)n(-c3c(C)ccc(O)c3C)c2nc1C          no (0)
2  O=C1/C(=C/c2ccc(Cl)cc2)CCC/C1=C\c1ccc(Cl)cc1          no (0)
3  NS(=O)(=O)CC1CC[CH-]CC1.[Cl-].[Cl-].[Cl-].[Cl-].[Cl-].[Sb+5].c1ccncc1          no (0)
4  CCCN(CCC)c1ccc(/C=N/NC(=O)c2cccnc2)c(OC)c1          no (0)
5  CN(CC(=O)Nc1nc2ccccc2[nH]1)S(=O)(=O)c1ccc(Cl)cc1          no (0)
6  CC1(C)NCCC[C@]2(C)[C@H]3CC[C@@H]4[C@H]5[C@H](C(=O)/C=C/c6ccccn6)CC[C@]5(CO)CC[C@@]4(C)[C@]3(C)CC[C@@H]12          no (0)
7  CC(=[N-])N1CCC[C@@H](Nc2c3ccccc3nc3ccccc23)C1.[Cl][Pt].[NH-]CCC[NH-]          no (0)
8     Oc1ccc(C2c3ccccc3Oc3ccccc32)c2cccnc12          no (0)
9  O=C(N/N=C/c1ccc(O)cc1O)c1cccc(Nc2ccnc(C(F)(F)F)c2)c1         yes (1)

----------
- Test system: NCI-H522 lung
- EXPERIMENTAL DETAILS: NCI tumour cell line growth inhibition, 48 h
*1 amine or outer side, *2 acyl side, *3 side chain or, on linkers, in order; H or OH if unused. Where a SMILES comes first, the peptide text is derived from it. Bridges are numbered along the chain shown (N, C = ends). [ ]: non-standard residue; d: D form. The star is where a group is joined. X34 = O=C(C(CCCCNO[*:3])N[*:1])[*:2]; Fmoc = O=C(OCC1c2ccccc2-c2ccccc21)*
MEASURED PROPERTY: TGI

COMPOUND	ASSAY TARGET	MEASURED PROPERTY	RESULT VALUE
O=C(O)[C@H](Cc1ccccc1)NCCN1CCC[C@H]1C(=O)O	NCI-H522 lung	TGI	> 100 µM
NC(=O)CNC(=O)C1CCCN1C(=O)C1CCCCNOC(=O)CCC(NC(=O)OCC2c3ccccc3-c3ccccc32)C(=O)NC(Cc2c[nH]c3ccccc23)C(=O)N1 (centres undefined) (Fmoc-EW[X34]PG-NH2; ester 1-3; configuration not given here)	NCI-H522 lung	TGI	> 100 µM
CC(C)Oc1cccc(N2C(=NCCc3c[nH]c4ccccc34)Nc3ccncc3S2(=O)=O)c1	NCI-H522 lung	TGI	> 100 µM
Cc1ccc(C(=O)/C(=C\c2ccc([N+](=O)[O-])cc2)S(=O)Cc2ccc(Cl)cc2)cc1 (centres undefined)	NCI-H522 lung	TGI	3.18 µM

----------
- Test system: CAKI-1 renal
- EXPERIMENTAL DETAILS: NCI tumour cell line growth inhibition, 48 h; in the data active = GI50 below about 0.43 µM; inactive = the rest
Classes used: active, inactive

>>> df
                                    molecule  category_label
 0        CCCCCCCCCNC(=O)/C=C/c1ccc(O)c(O)c1        inactive
 1  Oc1c(Cl)cc(Cl)cc1C(c1cc(Cl)cc(Cl)c1O)C(Cl)(Cl)Cl        inactive
 2        COC(=O)c1cc2c3ccccc3[nH]c2c2sccc12        inactive
 3  [N-]=[N+]=NCCCn1c2c(c3ccc([N+](=O)[O-])cc3c1=O)C(=O)c1cc(F)ccc1-2          active
 4  O=C(/C=C/C12c3ccccc3C(c3ccccc31)C1C(=O)NC(=O)C12)c1ccc(F)cc1 (stereo not drawn)        inactive
 5  CCOC(=O)C#Cc1c(C(=O)OCC)nnn1Cc1ccc([N+](=O)[O-])cc1        inactive
 6  CC1(C)NCCC[C@]2(C)[C@H]3CC[C@@H]4[C@H]5[C@H](C(=O)/C=C/c6ccccn6)CC[C@]5(CO)CC[C@@]4(C)[C@]3(C)CC[C@@H]12        inactive
 7  CC([C@H]1CCC2C3CCC4C[C@@H](N)CC[C@]4(C)C3CC[C@@]21C)N(C)C (stereo partly drawn)        inactive
 8  CCCN(CCC)c1ccc(/C=N/NC(=O)c2cccnc2)c(OC)c1        inactive
 9     CCN(CC)C(=S)SCN1C(=O)c2ccccc2S1(=O)=O        inactive
10  NS(=O)(=O)NCCNc1nonc1C(=Nc1ccc(F)c(Br)c1)NO        inactive
11    Cc1cn2c(/C=N/N=C(N)N)c(-c3ccccn3)nc2s1        inactive
12  C=C1C(=O)O[C@H]2[C@H]1CC/C(COC(=O)C(C)c1ccc(CC(C)C)cc1)=C\CC[C@@]1(C)O[C@@H]21 (stereo partly drawn)        inactive
